// reported Drug uptake for each item listed
- Test system: Femur
- assayProcedure: Biodistribution in Sprague-Dawley rat femur at 1 MBq, iv after 4 hrs
- Type: ADME, organism-based
- setupConditions: in vivo
Give just the number in % ID/g; leave the unit off.

Example results:
CCN(CC)C(=O)Cc1c(-c2ccc(OCCC[18F])cc2)nn2c(C)cc(C)nc12 2.2
CCN(CC)C(=O)Cc1c(-c2ccc(OCC[18F])cc2)nn2c(C)cc(C)nc12 0.7
CCN(CC)C(=O)Cc1c(-c2ccc(OCCC[18F])cc2)nc2ccc(Cl)cn12 2.2

Attention now shifts to the item below.
Q. Enter measured Drug uptake, system Femur, for the compound shown: CCN(CC)C(=O)Cc1c(-c2ccc(OCC[18F])cc2)nc2ccc(Cl)cn12
A. 0.7
